test system: Mycosphaerella graminicola (Septoria tritici); assay: Mycosphaerella graminicola (Septoria tritici) / liquid culture (Septoria blotch); format: cell-based; conditions: Zymoseptoria tritici; at ≦200 ppm, liquid culture PDB, inhibition of growth photometrically 4-5 days after application; read-out: control of Mycosphaerella graminicola
Readout Kind: inhibition of growth at up to 200 µg/mL

[[record]]
molecule = "Cc1ccc2c(n1)/C(=N/OCC(C)(C)CO/N=C(\\c1ncc(Cl)cc1F)C(C)Cl)CCC2 (stereo not drawn) [Compound 2.545]"
result = "≥ 80%"

[[record]]
molecule = "C/C(=N\\OCC(C)(C)CO/N=C1\\CCCc2ccc(C)nc21)c1cccc(Br)n1 [E/E-2.508]"
result = "≥ 80%"

[[record]]
molecule = "C/C(=N\\OCC(C)(C)CO/N=C1\\CCCc2ccc(C)nc21)c1ccc2ccccc2n1 [Compound 2.512]"
result = "≥ 80%"

